Tested on: KRas Q61H mutant
Assay: Ras GTP binding domain inhibition assay (Cy3-GTP/Cy5-GTP competition)
Set-up: species or system human
Conditions: 20 μM; without SOS
attribute measured: KRas Q61H mutant: % inh.

COc1ccc(Oc2nc(-c3ccccn3)nc(O)c2OC)cc1 [drawing 815]: D (76-100% inhibition)
O=C(NC1CCC1)c1nc(-c2ccccn2)nc(O)c1O [drawing 809]: D (76-100% inhibition)
Oc1nc(-c2cn3ccccc3n2)nc2c(-c3ccccn3)csc12 [drawing 816]: B (26-50% inhibition)
COCCCN(C)c1nc(-c2nccn2C)nc2sc(-c3ccn(C)n3)c(-c3ccccc3)c12 [drawing 865]: A (1-25% inhibition)
COCCc1ccc(Oc2nc(-c3ccccn3)nc(O)c2OC)cc1 [drawing 814]: B (26-50% inhibition)
CCN(CC)C(=O)c1nc(-c2nccn2C)nc(O)c1O [drawing 829]: B (26-50% inhibition)
O=C(c1nc(-c2ccccn2)nc(O)c1O)N1CCc2ccccc2C1 [drawing 832]: C (51-75% inhibition)
Cc1cn(C)c(-c2nc(O)c3scc(-c4ccccn4)c3n2)n1 [drawing 807]: A (1-25% inhibition)

Q) Quote KRas Q61H mutant: % inh. reported for COCC(C)Nc1nc(-c2nccn2C)nc2sc(-c3ccn(C)n3)c(-c3ccccc3)c12 (stereo not drawn) [drawing 864] please.
A) 0 (0% inhibition)

Q) Quote KRas Q61H mutant: % inh. reported for CC(C)NC(=O)c1nc(-c2nccn2C)nc(O)c1O [drawing 830] please.
A) C (51-75% inhibition)

Q) Quote KRas Q61H mutant: % inh. reported for COc1ncccc1-c1sc2nc(-c3nccn3C)nc(N3CCC(OC)C3)c2c1-c1ccccc1.Cl (stereo not drawn) please.
A) C (51-75% inhibition)

Q) Quote KRas Q61H mutant: % inh. reported for COC1CCN(c2nc(-c3nccn3C)nc3sc(-c4ccccc4CO)c(-c4ccccc4)c23)C1.Cl (stereo not drawn) please.
A) B (26-50% inhibition)

Q) Quote KRas Q61H mutant: % inh. reported for Cn1ccnc1-c1nc(O)c(O)c(C(=O)N2CCCCC2)n1 [drawing 826] please.
A) B (26-50% inhibition)

Q) Quote KRas Q61H mutant: % inh. reported for COCCCNc1nc(-c2nccn2C)nc2sc(-c3ccn(C)n3)c(-c3ccccc3)c12 [drawing 866] please.
A) B (26-50% inhibition)

Q) Quote KRas Q61H mutant: % inh. reported for COCC(C)Nc1nc(-c2nccn2C)nc2sc(-c3cccc(OC)c3)c(-c3cscn3)c12 (stereo not drawn) [drawing 855] please.
A) C (51-75% inhibition)

Q) Quote KRas Q61H mutant: % inh. reported for O=C(NCc1ccccc1)c1nc(-c2ccccn2)nc(O)c1O [drawing 821] please.
A) D (76-100% inhibition)

Q) Quote KRas Q61H mutant: % inh. reported for COc1cccc(-c2sc3nc(-c4nccn4C)nc(N4CCC(OC)C4)c3c2-c2cscn2)c1 (stereo not drawn) [drawing 867] please.
A) A (1-25% inhibition)
